# system-tested: CHK2 (Homo sapiens (Human), UniProt O96017)
# Sequence (O96017 whole entry, species assumed): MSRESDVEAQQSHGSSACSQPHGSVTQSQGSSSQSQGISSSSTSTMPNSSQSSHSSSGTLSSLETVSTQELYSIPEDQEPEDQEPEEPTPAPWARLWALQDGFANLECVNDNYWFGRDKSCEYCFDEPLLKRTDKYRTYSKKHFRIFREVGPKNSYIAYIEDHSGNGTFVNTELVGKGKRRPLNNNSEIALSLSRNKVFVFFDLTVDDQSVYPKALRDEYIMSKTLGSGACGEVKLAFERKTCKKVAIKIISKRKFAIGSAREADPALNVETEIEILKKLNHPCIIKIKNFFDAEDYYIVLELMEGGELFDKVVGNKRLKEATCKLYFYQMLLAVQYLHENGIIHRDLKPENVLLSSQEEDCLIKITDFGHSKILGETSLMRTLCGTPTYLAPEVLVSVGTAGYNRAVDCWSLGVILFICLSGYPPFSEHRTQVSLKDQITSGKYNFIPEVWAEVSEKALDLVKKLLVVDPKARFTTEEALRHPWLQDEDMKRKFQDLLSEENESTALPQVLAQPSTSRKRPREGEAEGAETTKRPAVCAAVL
# protocol-notes: CHK2 kinase selectivity assay
# Assay type: biochemical
# reported-conditions: 1 μM inhibitor concentration
# Text: […]
Threshold rule: percentage inhibition of CHK2 greater than or equal to 2 percentage is t; below that, f.

-- ask Is percentage inhibition of CHK2 for `CC(C)n1ncc2c1CN(C1CCN(C)CC1)c1nccc3[nH]nc-2c13` at or above 2 percentage?
-- reply t

-- ask Is percentage inhibition of CHK2 for `CN1CCC(N2Cc3ccccc3-c3n[nH]c4ccnc2c34)CC1` at or above 2 percentage?
-- reply t

-- ask Is percentage inhibition of CHK2 for `c1cc2[nH]nc3c2c(n1)N(C1CCC1)CCC3` at or above 2 percentage?
-- reply t

-- ask Is percentage inhibition of CHK2 for `c1cc2[nH]nc3c2c(n1)N(C1CCCC1)CCC3` at or above 2 percentage?
-- reply f

Data provenance: patent US10918645B2
